# Target under test: human TLR8 (Homo sapiens)
# Sequence (Q9NR97 27-1041): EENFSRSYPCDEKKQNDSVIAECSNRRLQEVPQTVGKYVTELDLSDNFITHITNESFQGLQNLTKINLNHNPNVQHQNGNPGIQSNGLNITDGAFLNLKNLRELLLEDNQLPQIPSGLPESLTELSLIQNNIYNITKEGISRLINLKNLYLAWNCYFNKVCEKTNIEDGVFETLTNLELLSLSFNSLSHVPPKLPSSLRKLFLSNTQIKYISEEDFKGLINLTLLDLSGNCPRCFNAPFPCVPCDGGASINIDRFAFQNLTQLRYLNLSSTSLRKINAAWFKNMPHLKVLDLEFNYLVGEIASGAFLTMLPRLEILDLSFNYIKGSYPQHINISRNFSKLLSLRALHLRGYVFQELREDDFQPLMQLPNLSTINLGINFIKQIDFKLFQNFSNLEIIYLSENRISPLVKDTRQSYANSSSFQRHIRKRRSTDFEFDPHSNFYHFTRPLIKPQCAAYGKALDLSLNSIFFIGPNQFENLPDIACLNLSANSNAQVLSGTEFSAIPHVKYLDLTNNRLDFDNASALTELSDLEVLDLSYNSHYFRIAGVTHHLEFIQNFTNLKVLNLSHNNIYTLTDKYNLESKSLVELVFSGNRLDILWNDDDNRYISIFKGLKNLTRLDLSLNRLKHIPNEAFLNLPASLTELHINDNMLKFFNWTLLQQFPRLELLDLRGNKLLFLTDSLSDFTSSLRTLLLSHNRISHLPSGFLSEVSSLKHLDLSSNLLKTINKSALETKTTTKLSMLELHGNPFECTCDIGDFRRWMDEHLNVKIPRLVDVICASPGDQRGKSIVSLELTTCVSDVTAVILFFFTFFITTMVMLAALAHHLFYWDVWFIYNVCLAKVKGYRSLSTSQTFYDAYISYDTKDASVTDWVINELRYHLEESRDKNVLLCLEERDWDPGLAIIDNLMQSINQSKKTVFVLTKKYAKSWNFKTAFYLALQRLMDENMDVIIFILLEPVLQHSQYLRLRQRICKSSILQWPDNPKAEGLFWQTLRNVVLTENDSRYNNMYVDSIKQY
# Test details: TLR8 inhibition reporter assay (HEK-Blue cells, SEAP reporter, R848 stimulation)
# Test conditions: HEK-Blue cells overexpressing human TLR8, SEAP reporter, R848 15.9 μM
Quantity name: pIC50
# pIC50: negative log10 of molar concentration; output just the value

Q: Under human TLR8 (Homo sapiens), report pIC50 for CNCC(=O)N1CCCC(c2ccc3[nH]c(-c4cc(OC)c5ncnn5c4)c(C(C)C)c3c2)C1 (centres unmarked) [Example 211]
Ans: 7.96

Q: Under human TLR8 (Homo sapiens), report pIC50 for Cc1cc(-c2[nH]c3ccc(C4CCC(N5CCOCC5)CC4)cc3c2C(C)C)cn2ncnc12 (centres unmarked) [Example 103]
Ans: 8.13

Q: Under human TLR8 (Homo sapiens), report pIC50 for COCCN1CCOC(c2ccc3[nH]c(-c4cc(OC)c5ncnn5c4)c(C(C)C)c3c2)C1 (centres unmarked)
Ans: 7.92

Q: Under human TLR8 (Homo sapiens), report pIC50 for Cc1cc(-c2[nH]c3ccc(C4CN5CCC4CC5)cc3c2C(C)C)cc(C)n1 (single isomer, unassigned) [Example 362]
Ans: 7.85

Q: Under human TLR8 (Homo sapiens), report pIC50 for Cc1c(-c2[nH]c3ccc(C4CN(C5COC5)C4)cc3c2C(C)C)cn2ncnc2c1C
Ans: 7.92

Q: Under human TLR8 (Homo sapiens), report pIC50 for COc1cc(-c2[nH]c3ccc(C4CCC(NC(=O)CN5CCS(=O)(=O)CC5)CC4)cc3c2C(C)C)cn2ncnc12 (centres unmarked)
Ans: 8.01

Q: Under human TLR8 (Homo sapiens), report pIC50 for Cc1c(-c2[nH]c3ccc(C4CC5CN(CC#N)CC5C4)cc3c2C(C)C)cn2cnnc2c1C (centres unmarked)
Ans: 6.93

Q: Under human TLR8 (Homo sapiens), report pIC50 for CNCC(=O)N1CCCC(c2ccc3[nH]c(-c4cn5ncnc5c(C)c4C)c(C(C)C)c3c2)C1 (centres unmarked) [Example 214]
Ans: 8.54

Q: Under human TLR8 (Homo sapiens), report pIC50 for COc1cc(-c2[nH]c3ccc(C4CCC(NC5COC5)CC4)cc3c2C(C)C)cn2ncnc12 (centres unmarked) [Example 64]
Ans: 9.06

Q: Under human TLR8 (Homo sapiens), report pIC50 for Cc1c(-c2[nH]c3ccc(C4CCC(NC(=O)CN(C)C)CC4)cc3c2C(C)C)cn2ncnc2c1C (centres unmarked) [Example 124]
Ans: 7.92

Q: Under human TLR8 (Homo sapiens), report pIC50 for Cc1c(-c2[nH]c3ccc(C4CC(NC5COC5)C4)cc3c2C(C)C)cn(C)c(=O)c1C (centres unmarked)
Ans: 8.37

Q: Under human TLR8 (Homo sapiens), report pIC50 for COc1cc(-c2[nH]c3ccc(C4CCCN(CC(N)=O)C4)cc3c2C(C)C)cn2ncnc12 (centres unmarked) [Example 234]
Ans: 8.24

Q: Under human TLR8 (Homo sapiens), report pIC50 for CN[C@@H](C)C(=O)N1CCCC(c2ccc3[nH]c(-c4cc(C)nc(C)c4)c(C(C)C)c3c2)C1 (some centres unmarked) [Example 216]
Ans: 7.74

Q: Under human TLR8 (Homo sapiens), report pIC50 for COc1cc(-c2[nH]c3ccc(C4CN(C(=O)CNC5(C)COC5)CCO4)cc3c2C(C)C)cn2ncnc12 (centres unmarked)
Ans: 8.60

Q: Under human TLR8 (Homo sapiens), report pIC50 for Cc1cc(-c2[nH]c3ccc(CCN4CCC(F)CC4)cc3c2C(C)C)cn(C)c1=O
Ans: 8.85

Q: Under human TLR8 (Homo sapiens), report pIC50 for Cc1c(-c2[nH]c3ccc(C4CCC(NC5COC5)CC4)cc3c2C(C)C)cn(C)c(=O)c1C (centres unmarked) [Example 478]
Ans: 8.12

Q: Under human TLR8 (Homo sapiens), report pIC50 for COc1cc(-c2[nH]c3ccc(C4CCCN(CC(N)=O)C4)cc3c2C(C)C)cn2ncnc12 (centres unmarked) [Example 229]
Ans: 8.09

Q: Under human TLR8 (Homo sapiens), report pIC50 for Cc1c(-c2[nH]c3ccc(C4CCC(NC5CC5)CC4)cc3c2C(C)C)cn2ncnc2c1C (centres unmarked) [Example 17]
Ans: 9.15

Q: Under human TLR8 (Homo sapiens), report pIC50 for Cc1c(-c2[nH]c3ccc(C4CN(CC(N)=O)CCO4)cc3c2C(C)C)cn2ncnc2c1C (centres unmarked) [Example 320]
Ans: 7.27

Q: Under human TLR8 (Homo sapiens), report pIC50 for COc1cc(-c2[nH]c3ccc(C4CCC(NC(=O)CN5CCOCC5)CC4)cc3c2C(C)C)cn2ncnc12 (centres unmarked) [Example 141]
Ans: 7.74
